- TARGET_DESC: EIF2AK3 (Homo sapiens, UniProt Q9NZJ5)
- Sequence (Q9NZJ5 30-1116): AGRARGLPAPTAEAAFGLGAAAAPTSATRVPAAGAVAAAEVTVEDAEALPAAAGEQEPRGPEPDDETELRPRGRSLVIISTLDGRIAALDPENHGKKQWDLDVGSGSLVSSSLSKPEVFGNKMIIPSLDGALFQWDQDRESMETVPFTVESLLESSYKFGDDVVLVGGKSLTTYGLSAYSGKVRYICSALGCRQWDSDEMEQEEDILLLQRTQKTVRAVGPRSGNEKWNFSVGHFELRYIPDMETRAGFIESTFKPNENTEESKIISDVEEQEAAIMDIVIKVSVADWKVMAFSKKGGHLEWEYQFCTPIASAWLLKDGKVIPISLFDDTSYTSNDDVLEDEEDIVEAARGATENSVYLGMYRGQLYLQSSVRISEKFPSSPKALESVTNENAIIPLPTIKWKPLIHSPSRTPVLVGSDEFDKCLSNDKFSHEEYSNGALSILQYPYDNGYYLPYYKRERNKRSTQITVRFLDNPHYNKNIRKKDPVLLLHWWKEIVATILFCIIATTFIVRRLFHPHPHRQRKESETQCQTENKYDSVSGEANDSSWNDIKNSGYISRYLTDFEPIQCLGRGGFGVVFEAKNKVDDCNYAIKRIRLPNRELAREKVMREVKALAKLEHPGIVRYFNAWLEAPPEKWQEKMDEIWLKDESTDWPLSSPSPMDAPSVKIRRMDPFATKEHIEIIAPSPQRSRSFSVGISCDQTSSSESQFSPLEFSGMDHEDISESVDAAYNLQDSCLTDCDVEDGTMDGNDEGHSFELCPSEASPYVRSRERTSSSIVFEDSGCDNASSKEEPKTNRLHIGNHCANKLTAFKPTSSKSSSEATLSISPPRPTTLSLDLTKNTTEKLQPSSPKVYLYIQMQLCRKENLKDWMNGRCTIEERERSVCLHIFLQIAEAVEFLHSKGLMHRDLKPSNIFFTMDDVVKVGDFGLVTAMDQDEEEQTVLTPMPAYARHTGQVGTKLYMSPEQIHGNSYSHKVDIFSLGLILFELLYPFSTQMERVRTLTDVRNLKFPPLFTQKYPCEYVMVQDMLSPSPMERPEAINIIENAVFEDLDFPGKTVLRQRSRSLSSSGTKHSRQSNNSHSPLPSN
- PROTOCOL_DESCRIPTION: Kinase profiling (radiometric filter-binding)
- Format: biochemical
- CONDITION_SET: EIF2AK3, 1 µM inhibitor; read-out: Residual activity, %
In this section we review reported remaining activity at 1 µM values for a set of compounds.
The reply should be a number in %, with the unit left off.

N=C(N)NCCC[C@@H](NC(=O)CNC(=O)[C@@H](CCCNC(=N)N)NC(=O)[C@@H](CCCNC(=N)N)NC(=O)Cn1cc(CNCc2nc3c(sc4ccc(Br)cc43)c(=O)[nH]2)nn1)C(=O)N[C@H](CCCCN)C(N)=O [Compound 3, BBTP-Amt-(D-Arg)2-Gly-D-Arg-D-Lys-NH2]; 113

Request: State its remaining activity at 1 µM for this compound: N=C(N)NCCC[C@@H](NC(=O)CNC(=O)[C@@H](CCCNC(=N)N)NC(=O)[C@@H](CCCNC(=N)N)NC(=O)CCCCCCCNCc1nc2c(sc3cc(Br)cnc32)c(=O)[nH]1)C(=O)N[C@H](CCCCN)C(N)=O [Compound 1, BPTP-Aoc-(D-Arg)2-Gly-D-Arg-D-Lys-NH2]
Response: 94
